Source: patent US20020028938A1

Parameter: IC50. Scope: all listed entries.
target.entity: human amnionic whole cell cyclooxygenase-2 (WISH cells) (Homo sapiens, UniProt P35354)
Construct: endogenous in cells
Sequence (P35354 18-604): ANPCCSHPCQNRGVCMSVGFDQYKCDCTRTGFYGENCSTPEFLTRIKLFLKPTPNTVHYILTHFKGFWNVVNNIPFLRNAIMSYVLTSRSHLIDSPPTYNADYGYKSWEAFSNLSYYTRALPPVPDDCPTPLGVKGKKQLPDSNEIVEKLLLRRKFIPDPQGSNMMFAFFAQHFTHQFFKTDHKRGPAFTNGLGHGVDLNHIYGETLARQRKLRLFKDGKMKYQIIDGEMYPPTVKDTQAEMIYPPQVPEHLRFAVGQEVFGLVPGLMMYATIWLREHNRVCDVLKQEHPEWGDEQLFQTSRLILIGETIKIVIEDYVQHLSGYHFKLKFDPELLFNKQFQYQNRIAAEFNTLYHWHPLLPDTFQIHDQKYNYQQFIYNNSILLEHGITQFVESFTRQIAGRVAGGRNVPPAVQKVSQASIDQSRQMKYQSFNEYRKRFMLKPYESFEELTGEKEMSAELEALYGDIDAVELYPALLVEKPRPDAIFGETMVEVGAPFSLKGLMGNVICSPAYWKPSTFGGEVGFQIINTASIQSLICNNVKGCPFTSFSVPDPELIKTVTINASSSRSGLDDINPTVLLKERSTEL
assay.details: IL-1β induced PGE2 production in WISH cells
test.conditions: read-out: Wish IC50 (parenthetical value)
Just the number plus its unit, please.

{"compound": "CC(=O)NS(=O)(=O)c1ccc(-c2cnn(CC(F)(F)F)c(=O)c2OCC(C)(C)CO)cc1", "IC50": "54 nM"}
{"compound": "CS(=O)(=O)c1ccc(-c2cnn(-c3cccc(Cl)c3)c(=O)c2COc2ccc(F)cc2)cc1", "IC50": "68 nM"}
{"compound": "Cc1cc(-n2ncc(-c3ccc(S(C)(=O)=O)cc3)c(-c3ccc(F)cc3)c2=O)ccc1F", "IC50": "41 nM"}
{"compound": "NS(=O)(=O)c1ccc(-c2cnn(-c3ccc(F)cc3)c(=O)c2-c2ccc(F)cc2)cc1", "IC50": "50 nM"}
{"compound": "CS(=O)(=O)c1ccc(-c2cnn(-c3ccc(Cl)c(F)c3)c(=O)c2-c2ccc(F)cc2)cc1", "IC50": "30 nM"}

// fetch IC50 given entry CC(C)CCc1c(-c2ccc(S(C)(=O)=O)cc2)cnn(-c2ccc(F)c(F)c2)c1=O 28 nM

// fetch IC50 given entry NS(=O)(=O)c1ccc(-c2cnn(C3C=CCCC3)c(=O)c2-c2ccc(F)cc2)cc1 (centres unmarked) 50 nM

// fetch IC50 given entry NS(=O)(=O)c1ccc(-c2cnn(-c3ccc(F)c(Cl)c3)c(=O)c2-c2ccc(F)cc2)cc1 17 nM

====

target.entity: recombinant human Cox-1 (r-hu Cox1) (Homo sapiens)
Construct: made in house; host or cells: baculovirus/Sf9 insect cells (microsomes)
Sequence (P23219 24-599): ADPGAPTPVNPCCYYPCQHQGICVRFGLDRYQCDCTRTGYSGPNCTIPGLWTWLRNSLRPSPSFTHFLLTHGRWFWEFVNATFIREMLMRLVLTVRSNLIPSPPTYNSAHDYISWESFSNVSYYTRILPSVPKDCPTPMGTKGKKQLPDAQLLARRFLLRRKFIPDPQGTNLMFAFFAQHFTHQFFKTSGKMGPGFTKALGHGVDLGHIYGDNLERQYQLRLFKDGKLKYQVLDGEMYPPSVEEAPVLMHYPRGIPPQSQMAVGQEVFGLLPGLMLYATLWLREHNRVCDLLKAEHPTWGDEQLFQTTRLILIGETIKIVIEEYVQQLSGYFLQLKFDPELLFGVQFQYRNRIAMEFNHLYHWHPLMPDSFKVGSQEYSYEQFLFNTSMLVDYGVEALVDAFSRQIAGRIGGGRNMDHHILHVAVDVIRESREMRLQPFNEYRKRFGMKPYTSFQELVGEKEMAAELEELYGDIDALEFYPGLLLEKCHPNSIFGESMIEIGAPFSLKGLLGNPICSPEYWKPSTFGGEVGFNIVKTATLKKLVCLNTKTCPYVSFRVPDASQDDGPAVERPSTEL
assay.details: Recombinant human PGHS-1 enzyme assay (RHUCX1)
Type: biochemical
test.conditions: 100 μM; read-out: RHUCX1 % Inh. at Dose
property: inhibition at 100 µM (%)
Kindly answer with a numeric value in %, unit omitted.

Example compounds with recorded inhibition at 100 µM:
{"compound": "CS(=O)(=O)c1ccc(-c2cnn(Cc3ccccc3)c(=O)c2-c2ccc(Cl)cc2)cc1", "inhibition at 100 µM [%]": 10}
{"compound": "CS(=O)(=O)c1ccc(-c2cnn(-c3ccc(F)c(F)c3)c(=O)c2OCCC2C=CCC2)cc1 (stereo not shown)", "inhibition at 100 µM [%]": 20}
{"compound": "Cc1ccc(-c2c(-c3ccc(S(C)(=O)=O)cc3)cnn(-c3cccc(Cl)c3)c2=O)cc1", "inhibition at 100 µM [%]": 8}

Would you kindly look at the next entry?
// fetch inhibition at 100 µM given entry COc1c(F)cc(-c2c(-c3ccc(S(C)(=O)=O)cc3)cnn(CC(F)(F)F)c2=O)cc1F 51

====

target.entity: recombinant human Cox-1 (r-hu Cox1) (Homo sapiens)
Construct: made in house; host or cells: baculovirus/Sf9 insect cells (microsomes)
assay.details: Recombinant human PGHS-1 enzyme assay (RHUCX1)
Assay type: biochemical
test.conditions: 10 μM; read-out: RHUCX1 % Inh. at Dose
Method: To compare the mean responses of the treatment groups, analysis of variance was applied. Percent inhibition values were determined by comparing the individual treatment mean values to the mean of the control group. […] EIA reagents for prostaglandin determination were purchased from Perseptive Diagnostics, (Cambridge, Mass.). Prostaglandin E2 (PGE2) levels in lavage fluids were determined after the samples were dried under nitrogen and reconstituted with assay buffer. […]
Give rule met when the value for inhibition at 10 µM is at least 50%. Give rule not met when it is less.

Example entries begin here.
{"compound": "CC(C)CCc1c(-c2ccc(S(N)(=O)=O)cc2)cnn(-c2ccc(F)c(Cl)c2)c1=O [Example 405]", "label": "rule met"}
{"compound": "NS(=O)(=O)c1ccc(-c2cnn(-c3ccc(F)cc3)c(=O)c2-c2ccc(F)cc2)cc1 [Example 89]", "label": "rule not met"}
{"compound": "CS(=O)(=O)c1ccc(-c2cnn(C=C(F)C(F)(F)C(F)(F)F)c(=O)c2-c2ccc(F)cc2)cc1 [Example 40]", "label": "rule met"}
{"compound": "CS(=O)(=O)c1ccc(-c2cnn(Cc3ccccc3)c(=O)c2-c2ccc(F)c(Cl)c2)cc1 [Example 52]", "label": "rule not met"}
{"compound": "CC(C)CCOc1c(-c2ccc(S(C)(=O)=O)cc2)cnn(-c2ccc(F)cc2)c1=O [Example 375]", "label": "rule not met"}

Check if inhibition at 10 µM >= 50% (inclusive). Item: CS(=O)(=O)c1ccc(-c2cnn(-c3ccc(Cl)s3)c(=O)c2-c2ccc(Cl)cc2)cc1 [Example 100] rule met

Check if inhibition at 10 µM >= 50% (inclusive). Item: CC(C)COc1c(-c2ccc(S(N)(=O)=O)cc2)cnn(-c2cccc(Cl)c2)c1=O [Example 395] rule not met

Check if inhibition at 10 µM >= 50% (inclusive). Item: CC(C)CCc1c(-c2ccc(S(N)(=O)=O)cc2)cnn(-c2ccc(F)c(F)c2)c1=O [Example 404] rule not met
